Assay: Acute toxicity test in rats
Conditions: rat, in vivo, sc, F344 rats, subcutaneous, Female; single dose, 2 weeks observation; read-out: LD50 (95% confidence limits)
measuredProperty: LD50 at 336 h (mg/kg)
Numbers only here, please. The scale is mg/kg.

### Prompt Would you mind telling me what LD50 at 336 h value was observed for CCOc1ccccc1OCCNC(C)Cc1ccc(OC)c(S(N)(=O)=O)c1 (stereo not shown) [Compound (I)] ?
### Response 347

* * *

Experiment: Acute toxicity test in mice
Settings: mouse, in vivo, sc, subcutaneous, Male, single dose, 2 weeks observation, read-out: LD50 (95% confidence limits)
measuredProperty: LD50 at 336 h (mg/kg)
Numbers only here, please. The scale is mg/kg.

### Prompt Would you mind telling me what LD50 at 336 h value was observed for CCOc1ccccc1OCCNC(C)Cc1ccc(OC)c(S(N)(=O)=O)c1 (stereo not shown) [Compound (I)] ?
### Response 254

* * *

Test: Acute toxicity test in mice
Conditions: mouse, in vivo, iv, Male, single dose, 2 weeks observation, read-out: LD50 (95% confidence limits)
measuredProperty: LD50 at 336 h (mg/kg)
Numbers only here, please. The scale is mg/kg.

### Prompt Would you mind telling me what LD50 at 336 h value was observed for CCOc1ccccc1OCCNC(C)Cc1ccc(OC)c(S(N)(=O)=O)c1 (stereo not shown) ?
### Response 98

* * *

Experiment: Acute toxicity test in rats
Details: rat, in vivo, iv, F344 rats, intravenous, Male; single dose, 2 weeks observation; read-out: LD50 (95% confidence limits)
Description: The acute toxicity of compound (I) salt was evaluated using ICR mice and F344 rats. compound (I) was dissolved in dimethylsulfoxide, and the same amount of Macrogol 400 (trade name) was added, and then distilled water for injection was added thereto to provide a solution of predetermined concentration. […] LD₅₀ values were determined by the up and down method (Probit method) using 5 animals.
measuredProperty: LD50 at 336 h (mg/kg)
Numbers only here, please. The scale is mg/kg.

### Prompt Would you mind telling me what LD50 at 336 h value was observed for CCOc1ccccc1OCCNC(C)Cc1ccc(OC)c(S(N)(=O)=O)c1 (stereo not shown) ?
### Response 70

* * *

Experiment: Acute toxicity test in mice
Details: mouse, in vivo, sc, subcutaneous, Female, single dose, 2 weeks observation, read-out: LD50 (95% confidence limits)
measuredProperty: LD50 at 336 h (mg/kg)
Numbers only here, please. The scale is mg/kg.

### Prompt Would you mind telling me what LD50 at 336 h value was observed for CCOc1ccccc1OCCNC(C)Cc1ccc(OC)c(S(N)(=O)=O)c1 (stereo not shown) [Compound (I)] ?
### Response 275

* * *

Assay: Acute toxicity test in rats
Settings: rat, in vivo, iv, F344 rats, intravenous, Female; single dose, 2 weeks observation; read-out: LD50 (95% confidence limits)
measuredProperty: LD50 at 336 h (mg/kg)
Numbers only here, please. The scale is mg/kg.

### Prompt Would you mind telling me what LD50 at 336 h value was observed for CCOc1ccccc1OCCNC(C)Cc1ccc(OC)c(S(N)(=O)=O)c1 (stereo not shown) [Compound (I)] ?
### Response 78
